Molecular target: Recombinant human Gal3 (rhGal3) (TrueBinding, #QC200361) (human, UniProt P17931 2-250)
Experiment: cell-based or functional assay
Kindly return rule met if reported % inhibition of CD62L shedding is no lower than 80%; return rule not met if it is lower.

Past entries and their recorded results:
[[record]]
binder = "F846C.1F5 (antibody, human IgG4 S228P, kappa, V domains shown) VH: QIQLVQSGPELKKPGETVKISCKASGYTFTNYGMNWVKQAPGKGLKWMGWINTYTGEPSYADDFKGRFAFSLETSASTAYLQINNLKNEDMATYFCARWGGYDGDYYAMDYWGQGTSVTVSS VL: NIMMTQSPSSLAVSAGEKVTMSCKSSQSVLYSSNQKNYLAWYQQKPGQSPKLLIYWASTRESGVPDRFTGSGSGTDFTLTISSVQPEDLAVYYCHQYLSSLTFGAGTKLELKR"
discrete_label = "rule not met"

[[record]]
binder = "847.28D1 (antibody, V domains shown) VH: QVQLVETGPGLVAPSQSLSITCTVSGFSLTSYGVHWIRQSPGKGLEWLGTIWAGGSTDYNSPLMSRLSISKDNSKNQVFLKMNSLQIDDTAIYYCASPPSGYDYDVFASWGQGTLVTVSA VL: DIRMTQSPASLSASVGETVTITCRASGNIHNYLAWYHQKQGKSPQLLVYNVKTLADGVPSRFSGSGSGTQFSLKINSLQPEDFGTYYCQHFWSIFPTFGGGTKLEIK"
discrete_label = "rule met"

[[record]]
binder = "849.5H1 (antibody, V domains shown) VH: QVQLKESGPVLVAPSQSLSITCTVSGFSLTSYGIHWVRQPPGKGLEWLGVIWAGGSTNYNSALMSRLSISKDNSKSQVFLKMNSLQIDDTAMYYCAKPPHDYDQAWFAYWGQGTLITVSA VL: DIQMNQSPSSLSASLGDTITITCHASQNINVWLSWYQQKPGNIPKLLIYQASNLHTGVPSRFSGRGSGTGFTLTISSLQPEDIATYYCQQGQSSPFTFGSGTKLEIK"
discrete_label = "rule met"


In the following, a different binder is considered.
Query string: Could you verify whether the entry 849.4F12 (antibody, V domains shown) VH: QVQLKESGPGILQPSQTLSLTCSFSGFSLSTFGMGVGWIRQPSGKGLEWLAHIWWDDDKHYNPALKSRLTISKDTSKNQVFLRIANVDTADNATYYCARIDYGDYVGFAYWGQGTLVTVSA VL: DILLTQSPSSMSVSLGDTVSITCHASQGINSNIGWLQQKPGKSFKGLIYHGTNLEDGVPSRFSGSGSGADYSLTISSLESEDFADYYCVQYDQFPWTFGGGTKLEIK shows % inhibition of CD62L shedding of no less than 80%?
Result string: rule not met
